System: C. albicans cells
Assay: Zeta potential of fungal cells by dynamic light scattering
Type: cell-based
Design: unit not given here
Settings: theoretical: charge of the peptide added to the zeta potential of the C. albicans cells
Positions of bridges follow the written chain, without caps; N, C: chain ends. Non-standard residues stand in square brackets, D forms with d. Residues, ends and D or L forms follow the SMILES beside them. Triazole bridges read from a SMILES are 1,4-linked. Lys(N3) = [N-]=[N+]=NCCCC[C@H](N)C(=O)O; Pra = C#CC[C@H](N)C(=O)O
REPORTED_PROPERTY: Calculated Zeta Potential
Answer with a number only.

Briefly, Calculated Zeta Potential measured for CC(C)C[C@H](NC(=O)[C@@H]1CCCCn2cc(nn2)C[C@H](NC(=O)[C@H](CCCCN)NC(=O)[C@H](CO)NC(=O)[C@H](Cc2ccccc2)NC(=O)[C@H](Cc2c[nH]c3ccccc23)NC(=O)[C@@H]2CCCN2C(=O)[C@@H](NC(=O)[C@@H](N)Cc2ccccc2)C(C)C)C(=O)N[C@H](CC(C)C)C(=O)NCC(=O)N[C@@H](CCCNC(=N)N)C(=O)N1)C(N)=O [compound 7] (H-FVPWFSK[Pra][dL]GR[Lys(N3)]L-NH2; triazole 8-12; N-terminus assumed) : −3.2
